pIC50: −log10 of the molar value.
Hi, quick share: literature pIC50 data for Xanthine dehydrogenase/oxidase (Bos taurus), several sources combined.
MEASURED METRIC: pIC50

Solved cases below.
N#Cc1cc(-c2ccc(C(=O)O)cc2)n2cccc(Cl)c12    8.22
N#Cc1cn(-c2ccc(C(=O)O)c(O)c2)c2cc(OCCOc3ccccc3)ccc12    7.38
Cc1nc(-c2cc(C#N)c3ccccc3c2)sc1C(=O)O    8.15
COc1ccc(-c2ccc(-n3cc(C(=O)O)cn3)cc2C#N)cc1    8.85
Cc1ccc2c(c1)c(C#N)cn2-c1ccc(C(=O)O)cn1    7.61
Cc1c(Cl)ccn2c(-c3ccc(C(=O)O)c(O)c3)cc(C#N)c12    8.70
CCCOc1ccc(-c2ccc(C(=O)[O-])s2)cc1C#N.[Na+]    8.49
N#Cc1cn(-c2ccc(C(=O)O)cc2)c2ccc(-c3ccncc3)cc12    7.84
CC(C)(C)c1ccn2c(-c3ccc(C(=O)O)cc3)cc(C#N)c2c1    8.70
Cc1ccn2c(-c3ccc(C(=O)O)cc3)cc(C#N)c2c1F    8.30

1: N#Cc1cn(-c2ccc(C(=O)O)cc2)cc1-c1ccc(F)cc1
2: N#Cc1cn(-c2ccc(C(=O)O)c(O)c2)c2cc(OCCCN)ccc12
input: Form: Entry with minimum pIC50 (choose one): 1 / 2 Answer by stating the label of the chosen item.
output: 2
(2: 7.98, 1: 8.30)

a: COCCOc1ccc2c(C#N)cn(-c3ccc(C(=O)O)c(O)c3)c2c1
b: Cc1nc(-c2ccc(C(F)(F)F)cc2)sc1C(=O)O
c: N#Cc1cn(-c2ccc(C(=O)O)cc2)c2ccc(OCCCN)cc12
d: Cc1nc(-c2cc(Cl)c(OCCN3CCOCC3)c(Cl)c2)sc1C(=O)O
input: Sort (4 compounds) by pIC50: min first. Output spec: a listing of the labels in the requested order.
output: b, c, a, d
(b: 6.51, c: 7.76, a: 7.98, d: 9.15)

P: CCOCCOc1ccc(-c2nc(C)c(C(=O)O)s2)cc1Cl
Q: N#Cc1cn(-c2ccc(C(=O)O)c(O)c2)c2cc(OCc3ccccc3)ccc12
input: Form: Entry with minimum pIC50 (choose one): P / Q Answer by stating the label of the chosen item.
output: Q
(Q: 7.47, P: 8.15)

----------
Hi, quick share: literature pIC50 data for Xanthine dehydrogenase/oxidase (Bos taurus, UniProt P80457), several sources combined.
pIC50: −log10 of the molar value.
MEASURED METRIC: pIC50

Solved cases below.
COc1c(C)cc2c(c(C#N)cn2-c2ccc(C(=O)O)cc2)c1C    8.00
N#Cc1cn(-c2ccc(C(=O)O)cc2)cc1-c1ccsc1    8.33
CC(=O)c1cc(-c2ccc(C(=O)O)s2)ccc1OC1CCCC1    8.23
N#Cc1cn(-c2ccc(C(=O)O)cc2)nc1-c1ccccc1    8.09
Cc1cccn2c(-c3ccc(C(=O)O)c(O)c3)cc(C#N)c12    8.52

P: Cc1ccc2c(c1)c(C#N)cn2-c1ccc(C(=O)O)c(O)c1
Q: Cc1nc(-c2cc(C(F)(F)F)cc(C(F)(F)F)c2)sc1C(=O)O
input: Form: Entry with minimum pIC50 (choose one): P / Q Answer by stating the label of the chosen item.
output: P
(P: 7.86, Q: 8.24)

----------
Hi, quick share: literature IC50 data for Xanthine dehydrogenase/oxidase (Bos taurus, UniProt P80457), several sources combined.
MEASURED METRIC: IC50 (nM)

Solved cases below.
N#Cc1c(F)c(-c2ccc(C(=O)O)cc2)n2ccccc12    68
Cc1nc(-c2ccc(OCC(C)C)c([N+](=O)[O-])c2)sc1C(=O)O    2.4

a: CN(C)CCCOc1ccc2c(c1)c(C#N)cn2-c1ccc(C(=O)O)cc1
b: CC(C)COc1c(Br)cc(-c2cc(C(=O)O)ccn2)cc1C#N
input: Form: Entry with minimum IC50 (choose one): a / b Answer by stating the label of the chosen item.
output: b
(b: 5.8 nM, a: 16.4 nM)

----------
pIC50: −log10 of the molar value.
Hi, quick share: literature pIC50 data for Xanthine dehydrogenase/oxidase (Bos taurus), several sources combined.
MEASURED METRIC: pIC50

Solved cases below.
CC(=O)c1cc(-c2nc(C)c(C(=O)O)s2)ccc1O    6.52
Cc1nc(-c2ccc(N3CCCCC3)c([N+](=O)[O-])c2)sc1C(=O)O    8.80
COCCOc1ccc2c(c1)c(C#N)cn2-c1ccc(C(=O)O)cc1    7.91

I: Cc1nc(-c2cc(Cl)c(OCC(C)C)c(Cl)c2)sc1C(=O)O
II: N#Cc1cn(-c2ccc(C(=O)O)cc2)c2ncc(Br)cc12
input: Form: Entry with minimum pIC50 (choose one): I / II Answer by stating the label of the chosen item.
output: II
(II: 7.00, I: 8.82)

----------
Hi, quick share: literature IC50 data for Xanthine dehydrogenase/oxidase (Bos taurus, UniProt P80457), several sources combined.
MEASURED METRIC: IC50 (nM)

Solved cases below.
CC(C)COc1ccc(-c2cc(C(=O)O)ccn2)cc1C(F)(F)F    6.3
CC(=O)c1ccn2c(-c3ccc(C(=O)O)c(O)c3)cc(C#N)c2c1    3
CC1(C)CC(Oc2ccc(-c3cc(C(=O)O)ccn3)cc2C#N)CC(C)(C)C1    4.3
N#Cc1cc(-c2ccc(C(=O)O)cc2)nc2ccccc12    81
Cc1nc(-c2cc(C#N)c3c(c2)c(C)cn3C(C)C)sc1C(=O)O    10

1: CSCCCOc1ccc(-c2cc(C(=O)O)ccn2)cc1C#N
2: Cc1nc(-c2cc(Cl)cc(Cl)c2)sc1C(=O)O
input: Form: Entry with minimum IC50 (choose one): 1 / 2 Answer by stating the label of the chosen item.
output: 1
(1: 5 nM, 2: 10 nM)

----------
pIC50: −log10 of the molar value.
Hi, quick share: literature pIC50 data for Xanthine dehydrogenase/oxidase (Bos taurus), several sources combined.
MEASURED METRIC: pIC50

Solved cases below.
N#Cc1cn(-c2ccc(C(=O)O)c(O)c2)c2cc(OCCO)ccc12    8.22
N#Cc1c(F)c(-c2ccc(C(=O)O)c(O)c2)n2ccccc12    8.40

P: COc1ccccc1-c1nn(-c2ccc(C(=O)O)cc2)cc1C#N
Q: N#Cc1cn(-c2ccc(C(=O)O)c(O)c2)c2ccc(OCc3ccccc3)cc12
R: CC1CCN(c2ccc(-c3ccc(C(=O)O)s3)cc2C#N)CC1
S: COc1ccc(-c2ccc3c(c2)c(C#N)cn3-c2ccc(C(=O)O)cc2)cc1
input: Order field: pIC50 | Direction: descending (largest first) Output spec: a listing of the labels in the requested order.
output: R, P, S, Q
(R: 8.70, P: 8.26, S: 7.81, Q: 7.40)

a: N#Cc1cn(-c2ccc(C(=O)O)c(O)c2)c2cc(OCc3cccc(Cl)c3)ccc12
b: N#Cc1cn(-c2ccc(C(=O)O)cc2)cc1-c1ccccc1F
input: Form: Entry with minimum pIC50 (choose one): a / b Answer by stating the label of the chosen item.
output: a
(a: 7.54, b: 8.43)

1: COCCOc1ccc2c(C#N)cn(-c3ccc(C(=O)O)cc3)c2c1
2: Cc1nc(-c2cc(C#N)c3ccc(F)cc3c2)sc1C(=O)O
3: Cc1nc(-c2ccc(Sc3ccc(Cl)cc3)c(Cl)c2)sc1C(=O)O
input: Sort (3 compounds) by pIC50: min first. Output spec: a listing of the labels in the requested order.
output: 1, 2, 3

----------
Hi, quick share: literature IC50 data for Xanthine dehydrogenase/oxidase (Bos taurus, UniProt P80457), several sources combined.
MEASURED METRIC: IC50 (nM)

Cc1cc(C)c2c(C#N)cc(-c3ccc(C(=O)O)c(O)c3)n2c1    4
N#Cc1cn(-c2ccc(C(=O)O)c(O)c2)c2cccc(OCc3ccccc3)c12    61.8
Cc1cc2c(C#N)cn(-c3ccc(C(=O)O)cc3)c2cc1Cl    9
N#Cc1cc(-c2ccc(C(=O)O)cc2)n2ccccc12    7
CCc1ccn2c(-c3ccc(C(=O)O)cc3)cc(C#N)c2c1    8

I: CC(C)COc1ccc(-c2ccc(-c3nnn[nH]3)s2)cc1[N+](=O)[O-]
II: N#Cc1cn(-c2ccc(C(=O)O)cc2)c2ccc(OCCOc3ccccc3)cc12
III: Cc1ccccc1-c1cn(-c2ccc(C(=O)O)cc2)cc1C#N
IV: COCCn1ccc2cc(-c3cc(C(=O)O)ccn3)cc([N+](=O)[O-])c21
V: Cc1nc(-c2ccc(N3CCOCC3)c(Cl)c2)sc1C(=O)O
input: Order field: IC50 | Direction: descending (largest first) Output spec: a listing of the labels in the requested order.
output: IV, II, I, III, V
(IV: 114 nM, II: 19 nM, I: 9.3 nM, III: 3.59 nM, V: 0.38 nM)
